# Type: cell-based, human
# conditionLabel: human, Cell viability (%)
Bridge positions count the residues as written; N and C are the ends. Square brackets hold non-standard residues; d marks the D form. Peptide text beside a SMILES is read from it. * marks the point of attachment. X1 = N=C(N)N[C@@H](Cc1ccccc1)C(=O)*
parameterMeasured: viability at 2 h, 3.12 µM (%)

molecule: CC[C@H](C)[C@H](NC(=O)[C@H](CCCNC(=N)N)NC(=O)[C@H]1CCC(=O)NCCCC[C@H](NC(=O)[C@H](Cc2ccccc2)NC(=O)[C@H](Cc2c[nH]c3ccccc23)NC(=O)[C@@H]2CCCN2C(=O)[C@@H](NC(=O)[C@H](Cc2ccccc2)NC(=N)N)C(C)C)C(=O)N[C@@H](CCCCN)C(=O)N[C@@H](Cc2ccccc2)C(=O)N[C@H](CC(C)C)C(=O)N1)C(=O)N[C@@H](CC(C)C)C(N)=O [Peptide 3, guanidino-FVPWF[KKFle]RIL] (X1-VPWFKKF[dL][dE]RIL-NH2; lactam 5-9)
reportedMeasurement: 126
--
molecule: CC[C@H](C)[C@H](NC(=O)[C@H](CCCNC(=N)N)NC(=O)[C@@H]1CCCNC(=N)NCCC[C@H](NC(=O)[C@H](Cc2ccccc2)NC(=O)[C@H](Cc2c[nH]c3ccccc23)NC(=O)[C@@H]2CCCN2C(=O)[C@@H](NC(=O)[C@@H](N)Cc2ccccc2)C(C)C)C(=O)N[C@@H](CCCCN)C(=O)N[C@@H](Cc2ccccc2)C(=O)N[C@H](CC(C)C)C(=O)N1)C(=O)N[C@@H](CC(C)C)C(N)=O [Peptide 13, FVPWF{OrnKFlOrn}RIL]
reportedMeasurement: 107

====

# viability at 2 h, 25 µM values compiled below
# Assay type: cell-based, human
# conditionLabel: human, Cell viability (%)

molecule: CC[C@H](C)[C@H](NC(=O)[C@H](CCCNC(=N)N)NC(=O)[C@@H]1CCCCNC(=N)NCCCC[C@H](NC(=O)[C@H](Cc2ccccc2)NC(=O)[C@H](Cc2c[nH]c3ccccc23)NC(=O)[C@@H]2CCCN2C(=O)[C@@H](NC(=O)[C@@H](N)Cc2ccccc2)C(C)C)C(=O)N[C@@H](CCCCN)C(=O)N[C@@H](Cc2ccccc2)C(=O)N[C@H](CC(C)C)C(=O)N1)C(=O)N[C@@H](CC(C)C)C(N)=O [Peptide 11, FVPWF{KKFlK}RIL]
viability at 2 h, 25 µM [%]: 57
//
molecule: CC[C@H](C)[C@H](NC(=O)[C@H](CCCNC(=N)N)NC(=O)[C@@H]1CCCNC(=N)NCCC[C@H](NC(=O)[C@H](Cc2ccccc2)NC(=O)[C@H](Cc2c[nH]c3ccccc23)NC(=O)[C@@H]2CCCN2C(=O)[C@@H](NC(=O)[C@@H](N)Cc2ccccc2)C(C)C)C(=O)N[C@@H](CCCCN)C(=O)N[C@@H](Cc2ccccc2)C(=O)N[C@H](CC(C)C)C(=O)N1)C(=O)N[C@@H](CC(C)C)C(N)=O [Peptide 13, FVPWF{OrnKFlOrn}RIL]
viability at 2 h, 25 µM [%]: 31

====

# Assay type: cell-based, human
# conditionLabel: human, Cell viability (%)
Bridge positions count the residues as written; N and C are the ends. Square brackets hold non-standard residues; d marks the D form. Peptide text beside a SMILES is read from it. * marks the point of attachment. Pro(cis-4-guanidino) = NC(N)=N[C@@H]1CN[C@H](C(=O)O)C1; Phe(4-guanidino) = N=C(N)Nc1ccc(C[C@H](N)C(=O)O)cc1; Butanoyl(4-guanidino) = N=C(N)NCCCC(=O)*; X1 = N=C(N)N[C@@H](Cc1ccccc1)C(=O)*
parameterMeasured: viability at 24 h, 12.5 µM (%)

compound: CC[C@H](C)[C@H](NC(=O)[C@H](CCCNC(=N)N)NC(=O)[C@@H]1CCCNC(=N)NCCC[C@H](NC(=O)[C@H](Cc2ccccc2)NC(=O)[C@H](Cc2c[nH]c3ccccc23)NC(=O)[C@@H]2CCCN2C(=O)[C@@H](NC(=O)[C@@H](N)Cc2ccccc2)C(C)C)C(=O)N[C@@H](CCCCN)C(=O)N[C@@H](Cc2ccccc2)C(=O)N[C@H](CC(C)C)C(=O)N1)C(=O)N[C@@H](CC(C)C)C(N)=O [Peptide 13, FVPWF{OrnKFlOrn}RIL]
parameterMeasured: viability at 24 h, 12.5 µM
endpointUnit: %
reportedMeasurement: 97
//
compound: CC[C@H](C)[C@H](NC(=O)[C@H](CCCNC(=N)N)NC(=O)[C@@H]1CCCCNC(=N)NCCCC[C@H](NC(=O)[C@H](Cc2ccccc2)NC(=O)[C@H](Cc2c[nH]c3ccccc23)NC(=O)[C@@H]2CCCN2C(=O)[C@@H](NC(=O)[C@@H](N)Cc2ccccc2)C(C)C)C(=O)N[C@@H](CCCCN)C(=O)N[C@@H](Cc2ccccc2)C(=O)N[C@H](CC(C)C)C(=O)N1)C(=O)N[C@@H](CC(C)C)C(N)=O [Peptide 11, FVPWF{KKFlK}RIL]
parameterMeasured: viability at 24 h, 12.5 µM
endpointUnit: %
reportedMeasurement: 87
//
compound: CC[C@H](C)[C@H](NC(=O)[C@H](CCCNC(=N)N)NC(=O)[C@H]1CCC(=O)NCCCC[C@H](NC(=O)[C@H](Cc2ccccc2)NC(=O)[C@H](Cc2c[nH]c3ccccc23)NC(=O)[C@@H]2CCCN2C(=O)[C@@H](NC(=O)[C@@H](N)Cc2ccccc2)C(C)C)C(=O)N[C@@H](CCCNC(=N)N)C(=O)N[C@@H](Cc2ccccc2)C(=O)N[C@H](CC(C)C)C(=O)N1)C(=O)N[C@@H](CC(C)C)C(N)=O [Peptide 9, FVPWF[KRFle]RIL] (H-FVPWFKRF[dL][dE]RIL-NH2; lactam 6-10)
parameterMeasured: viability at 24 h, 12.5 µM
endpointUnit: %
reportedMeasurement: 112
//
compound: CC[C@H](C)[C@H](NC(=O)[C@H](CCCNC(=N)N)NC(=O)[C@H]1CCCCNC(=N)NCCCC[C@H](NC(=O)[C@H](Cc2ccccc2)NC(=O)[C@H](Cc2c[nH]c3ccccc23)NC(=O)[C@@H]2CCCN2C(=O)[C@@H](NC(=O)[C@@H](N)Cc2ccccc2)C(C)C)C(=O)N[C@@H](CCCCN)C(=O)N[C@@H](Cc2ccccc2)C(=O)N[C@H](CC(C)C)C(=O)N1)C(=O)N[C@@H](CC(C)C)C(N)=O [Peptide 12, FVPWF{KKFlk}RIL]
parameterMeasured: viability at 24 h, 12.5 µM
endpointUnit: %
reportedMeasurement: 90
//
compound: CC[C@H](C)[C@H](NC(=O)[C@H](CCCNC(=N)N)NC(=O)[C@H]1CCC(=O)NCCCC[C@H](NC(=O)[C@H](Cc2ccccc2)NC(=O)[C@H](Cc2c[nH]c3ccccc23)NC(=O)[C@@H]2CCCN2C(=O)[C@@H](NC(=O)[C@H](Cc2ccccc2)NC(=O)CCCNC(=N)N)C(C)C)C(=O)N[C@@H](CCCCN)C(=O)N[C@@H](Cc2ccccc2)C(=O)N[C@H](CC(C)C)C(=O)N1)C(=O)N[C@@H](CC(C)C)C(N)=O [Peptide 5, guanidino-GABA-FVPWF[KKFle]RIL] ({Butanoyl(4-guanidino)}-FVPWFKKF[dL][dE]RIL-NH2; lactam 6-10)
parameterMeasured: viability at 24 h, 12.5 µM
endpointUnit: %
reportedMeasurement: 147
//
compound: CC[C@H](C)[C@H](NC(=O)[C@H](CCCNC(=N)N)NC(=O)[C@H]1CCC(=O)NCCCC[C@H](NC(=O)[C@H](Cc2ccccc2)NC(=O)[C@H](Cc2c[nH]c3ccccc23)NC(=O)[C@@H]2CCCN2C(=O)[C@@H](NC(=O)[C@H](Cc2ccccc2)NC(=N)N)C(C)C)C(=O)N[C@@H](CCCCN)C(=O)N[C@@H](Cc2ccccc2)C(=O)N[C@H](CC(C)C)C(=O)N1)C(=O)N[C@@H](CC(C)C)C(N)=O [Peptide 3, guanidino-FVPWF[KKFle]RIL] (X1-VPWFKKF[dL][dE]RIL-NH2; lactam 5-9)
parameterMeasured: viability at 24 h, 12.5 µM
endpointUnit: %
reportedMeasurement: 107
//
compound: CC[C@H](C)[C@H](NC(=O)[C@H](CCCNC(=N)N)NC(=O)[C@H]1CCC(=O)NCCCC[C@H](NC(=O)[C@H](Cc2ccccc2)NC(=O)[C@H](Cc2c[nH]c3ccccc23)NC(=O)[C@@H]2C[C@H](NC(=N)N)CN2C(=O)[C@@H](NC(=O)[C@@H](N)Cc2ccccc2)C(C)C)C(=O)N[C@@H](CCCCN)C(=O)N[C@@H](Cc2ccccc2)C(=O)N[C@H](CC(C)C)C(=O)N1)C(=O)N[C@@H](CC(C)C)C(N)=O [Peptide 7, FV(4-guanidino)PWF[KKFle]RIL] (H-FV[Pro(cis-4-guanidino)]WFKKF[dL][dE]RIL-NH2; lactam 6-10)
parameterMeasured: viability at 24 h, 12.5 µM
endpointUnit: %
reportedMeasurement: 95
//
compound: CC[C@H](C)[C@H](NC(=O)[C@H](CCCNC(=N)N)NC(=O)[C@H]1CCC(=O)NCCCC[C@H](NC(=O)[C@H](Cc2ccccc2)NC(=O)[C@H](Cc2c[nH]c3ccccc23)NC(=O)[C@@H]2CCCN2C(=O)[C@@H](NC(=O)[C@@H](N)Cc2ccc(NC(=N)N)cc2)C(C)C)C(=O)N[C@@H](CCCCN)C(=O)N[C@@H](Cc2ccccc2)C(=O)N[C@H](CC(C)C)C(=O)N1)C(=O)N[C@@H](CC(C)C)C(N)=O [Peptide 6, (p-guanidino)FVPWF[KKFle]RIL] (H-[Phe(4-guanidino)]VPWFKKF[dL][dE]RIL-NH2; lactam 6-10)
parameterMeasured: viability at 24 h, 12.5 µM
endpointUnit: %
reportedMeasurement: 86
//
compound: CC[C@H](C)[C@H](NC(=O)[C@H](CCCNC(=N)N)NC(=O)[C@H]1CCC(=O)NCCCC[C@H](NC(=O)[C@H](Cc2ccccc2)NC(=O)[C@H](Cc2c[nH]c3ccccc23)NC(=O)[C@@H]2CCCN2C(=O)[C@@H](NC(=O)[C@@H](N)Cc2ccccc2)C(C)C)C(=O)N[C@@H](CCCCN)C(=O)N[C@@H](Cc2ccc(NC(=N)N)cc2)C(=O)N[C@H](CC(C)C)C(=O)N1)C(=O)N[C@@H](CC(C)C)C(N)=O [Peptide 10, FVPWF[KK(p-guanidino)Fle]RIL] (H-FVPWFKK[Phe(4-guanidino)][dL][dE]RIL-NH2; lactam 6-10)
parameterMeasured: viability at 24 h, 12.5 µM
endpointUnit: %
reportedMeasurement: 103

The measured values listed here are drawn from paper PMC12703733.
